Values from patent US11384078B2

compounds and their reported pEC50
# Test system: L. donovani HU3 strain in mouse peritoneal macrophages
# PROTOCOL_TEXT: Assay for inhibition of parasitemia of Leishmania donovani in mouse macrophages (SYBR Green nuclei count, high-content imaging)
# Format: cell-based
# TEST_SETTINGS: Leishmania donovani, Peritoneal macrophage, L. donovani in mouse peritoneal macrophages; read-out: L. donovani in Mouse Macrophages EC50
pEC50 is a log-scale quantity: -log10 of the concentration expressed in molar.

// below: answered compounds
Request: Recall the reported pEC50 of `O=C(Nc1ccc(F)c(-n2cc3cc(N4CCC(C5COC5)CC4)cnc3n2)c1)N1CC(F)C1` when tested on L. donovani HU3 strain in mouse peritoneal macrophages.
Result: 7.49

Request: Quote pEC50 with test system L. donovani HU3 strain in mouse peritoneal macrophages for `Cc1cnc2nn(-c3cc(NC(=O)N4CC(F)C4)ccc3F)cc2c1`
Result: 7.49

Request: Answer with pEC50 of `O=C(Nc1ccc(F)c(-n2cc3cc(N4CC(F)(F)C4)cnc3n2)c1)N1CCCC1` measured for L. donovani HU3 strain in mouse peritoneal macrophages.
Result: 8.70

Request: Report the value of pEC50 obtained on L. donovani HU3 strain in mouse peritoneal macrophages for `O=C(Nc1ccc(F)c(-n2cc3cc(N4CCC45COC5)cnc3n2)c1)N1CC(F)C1` .
Result: 6.95

Request: State pEC50 on L. donovani HU3 strain in mouse peritoneal macrophages. Entry: `CC(C)Cc1cnc2nn(-c3cc(NC(=O)N4CC(F)C4)ccc3F)cc2c1`
Result: 8.01

Further cases:
Request: Write pEC50 of `O=C(Nc1ccnc(-n2cc3cc(-c4ccccn4)cnc3n2)c1)N1CCC1` ; system used: L. donovani HU3 strain in mouse peritoneal macrophages
Result: 7.48

Request: Quote L. donovani HU3 strain in mouse peritoneal macrophages pEC50 for entry `CC(C)(C)c1cnc2nn(-c3cc(NC(=O)N4CC(F)C4)ccc3F)cc2c1` .
Result: 4.68

Request: Report pEC50 from L. donovani HU3 strain in mouse peritoneal macrophages testing of `O=C(Nc1ccc(F)c(-n2cc3cc(-c4cnccn4)cnc3n2)c1)N1CC(F)C1`
Result: 8.40

Request: Fill in pEC50 for CCC(C)c1cnc2nn(-c3cc(NC(=O)N4CC(F)C4)ccc3F)cc2c1 (centres unmarked) tested with L. donovani HU3 strain in mouse peritoneal macrophages.
Result: 7.33

----------
# Tested on: Trypanosoma cruzi amastigotes cultured in 3T3 fibroblast cells
# PROTOCOL_TEXT: Assay for growth inhibition of kinetoplastid parasite Trypanosoma cruzi (beta-galactosidase Tulahuen strain, CPRG readout)
# Format: cell-based
# TEST_SETTINGS: Trypanosoma cruzi, Fibroblast, T. cruzi amastigotes in 3T3 fibroblast cells; read-out: Buckner infectious T. cruzi EC50
# Description: Assay for Growth Inhibition of Kinetoplastid Parasite Trypanosoma cruzi Compounds of the invention can be assayed for inhibitor activity against Trypanosoma cruzi amastigotes cultured in 3T3 fibroblast cells. The assay is done using the mammalian stage (amastigotes) of T. cruzi that replicates in the intracellular space of host cells. […] This allows for a colorimetric readout by using the substrate CPRG and an absorbance plate reader. […]
MEASURED_PROPERTY: pEC50
# reply with the number alone; pEC50 is -log10 of concentration in mol/L

Answered examples (3):
Request: Supply reported pEC50 belonging to this compound: Cc1nc(C)c(C(=O)Nc2ccc(F)c(-n3cc4cc(C5CC5)cnc4n3)c2)o1 [Compound 17]
Result: 7.80

Request: Could you please provide reported pEC50 for C[C@H]1CN(c2cnc3nn(-c4cc(NC(=O)N5CC(F)C5)ccc4F)cc3c2)C[C@H](C)O1 [Compound 177] ? Thanks!
Result: 7.26

Request: Given the compound CC(C)c1cnc2nn(-c3cc(NC(=O)c4cnccn4)ccc3F)cc2c1 [Compound 87] , write its reported pEC50.
Result: 7.80

Continue with the next compound.
Request: Give pEC50 for O=C(Nc1ccc(F)c(-n2cc3cc(N4C5CCC4COC5)cnc3n2)c1)N1CC(F)C1 [Compound 235]
Result: 7.96

----------
# Tested on: Trypanosoma cruzi amastigotes cultured in 3T3 fibroblast cells
# PROTOCOL_TEXT: Assay for growth inhibition of kinetoplastid parasite Trypanosoma cruzi (beta-galactosidase Tulahuen strain, CPRG readout)
# Type: cell-based
# TEST_SETTINGS: Trypanosoma cruzi, Fibroblast, T. cruzi amastigotes in 3T3 fibroblast cells; read-out: Buckner infectious T. cruzi EC50
MEASURED_PROPERTY: pEC50
In simple prose, pEC50 is minus the logarithm base ten of a concentration in moles per litre.

Request: Identify the reported pEC50 for the following entry. O=C(Nc1ccnc(-n2cc3cc(N4CC5(CC5)C4)cnc3n2)c1)N1CCC1 [Compound 282]
Result: 7.40

Request: Please give measured pEC50 of the following entry: [2H]C([2H])([2H])N(c1cnc2nn(-c3cc(NC(=O)N4CC(F)C4)ccc3F)cc2c1)C([2H])([2H])[2H] [Compound 314]
Result: 8.30

Request: // fetch pEC50 given entry O=C(Nc1ccc(F)c(-n2cc3cc(C4CCOCC4)cnc3n2)c1)N1CC(F)C1 [Compound 148]
Result: 7.85

Next compound, pEC50 to be filled in.
Request: Give recorded pEC50. CCN(C)C(=O)Nc1ccc(F)c(-n2cc3cc(C(C)C)cnc3n2)c1 [Compound 224]
Result: 7.34

----------
# Test system: Trypanosoma cruzi amastigotes cultured in 3T3 fibroblast cells
# PROTOCOL_TEXT: Assay for growth inhibition of kinetoplastid parasite Trypanosoma cruzi (beta-galactosidase Tulahuen strain, CPRG readout)
# Format: cell-based
# TEST_SETTINGS: Trypanosoma cruzi, Fibroblast, T. cruzi amastigotes in 3T3 fibroblast cells; read-out: Buckner infectious T. cruzi EC50
Classification field. Basis: EC50. Definitions: lower band: < 0.01 µM; central band: ≥ 0.01 µM and < 0.06 µM; upper band: ≥ 0.06 µM

Example results:
Request: Record `O=C(Nc1ccc(F)c(-n2cc3cc(N4CC(C(F)(F)F)C4)cnc3n2)c1)N1CC(F)C1` — which class?
Result: lower band

Request: Lab note: which band did `O=C(Nc1ccc(F)c(-n2cc3cc(Cl)cnc3n2)c1)N1CC(F)C1` land in?
Result: central band

Request: # classify by EC50 band: `O=C(Nc1ccc(F)c(-n2cc3cc(N4CC(F)(F)C4)cnc3n2)c1)N1CC(F)(F)C1`
Result: central band

Request: Sort `O=C(Nc1ccc(F)c(-n2cc3cc(C4CCC4)cnc3n2)c1)N1CC(F)(F)C1` into one of the categories.
Result: lower band

Request: Class? Entry: O=C(Nc1ccc(F)c(-n2cc3cc(N4CC5C(C4)C5(F)F)cnc3n2)c1)N1CC(F)C1 (centres unmarked)
Result: lower band

Request: Hello team, could you let me know which band the following compound falls into: `CC(C)c1cnc2nn(-c3cc(NC(=O)c4cc5ccccc5o4)ccc3F)cc2c1`
Result: upper band

Request: Please classify: `CC(C)(C)Cc1cnc2nn(-c3cc(NC(=O)N4CCC4)ccc3F)cc2c1`
Result: lower band

Request: Class label required: `O=C(Nc1ccc(F)c(-n2cc3cc(N4CCN(CC(F)(F)F)CC4)cnc3n2)c1)N1CC(F)(F)C1`
Result: central band

Request: Band for the recorded EC50 of `O=C(Nc1ccc(F)c(-n2cc3cc(N4CCN(CC(F)(F)F)CC4)cnc3n2)c1)N1CCC1` ?
Result: lower band

Request: Entry `O=C(Nc1ccc(F)c(-n2cc3cc(N4CCCC4)cnc3n2)c1)N1CC[C@@H](F)C1` belongs to which category?
Result: central band

New cases:
Request: Place this compound in its band: `O=C(Nc1ccc(F)c(-n2cc3cc(CC(F)(F)F)cnc3n2)c1)N1CC(F)(F)C1`
Result: lower band

Request: Any idea which band `O=C(Nc1ccc(F)c(-n2cc3cc(-n4ccnc4)cnc3n2)c1)N1CC(F)C1` is in?
Result: upper band

Request: Which category fits this record: `O=C(Nc1ccc(F)c(-n2cc3cc(N4C[C@@H](F)[C@H](F)C4)cnc3n2)c1)N1CC(F)C1`
Result: lower band

Request: Hello team, could you let me know which band the following compound falls into: `CC1(O)CN(c2cnc3nn(-c4cc(NC(=O)N5CC(F)C5)ccc4F)cc3c2)C1`
Result: upper band

Request: Returns: class label. Input: `Cc1nc(C(=O)Nc2ccc(F)c(-n3cc4cc(C(C)C)cnc4n3)c2)oc1C`
Result: upper band

Request: # bin label for `N#Cc1ccc(C(=O)Nc2ccc(F)c(-n3cc4cc(-c5ccccn5)cnc4n3)c2)o1`
Result: lower band

Request: State the class of the compound shown: `O=C(Nc1ccc(F)c(-n2cc3cc(N4CC(F)(F)C4)cnc3n2)c1)N1CC(F)C1`
Result: lower band

Request: Which band does `Cc1nc(C)c(C(=O)Nc2ccc(F)c(-n3cc4cc(NC(=O)OC(C)C)cnc4n3)c2)o1` fall in?
Result: central band

Request: Consider `O=C(Nc1ccc(F)c(-n2cc3cc(C4CCNCC4)cnc3n2)c1)N1CC(F)C1` . To which EC50 class does it belong?
Result: upper band

Request: Using the reported EC50, which band applies to `O=C(Nc1ccnc(-n2cc3cc(-c4ccccn4)cnc3n2)c1)N1CC(F)(F)C1` ?
Result: central band

Request: # classify by EC50 band: `CC(C)c1cnc2nn(-c3cc(NC(=O)N4CC5(CC5)C4)ccc3F)cc2c1`
Result: central band

Request: Hi there! Could you help me figure out the category for `O=C(Nc1ccc(F)c(-n2cc3cc(N4CC(F)(F)C4)cnc3n2)c1)C1CC1` please?
Result: upper band
